molecular target: DNA topoisomerase II (Homo sapiens) (UniProt P11388+Q02880); test: Double strand DNA breakage reflecting stabilization of DNA topoisomerase II intermediate by the compound expressed in terms of ng of DNA/unit of enzyme/mM of drug
Readout Type: DSB

Request: # get_value(readout='DSB', item= "COc1cc([C@@H]2c3cc4c(cc3[C@@H](O[C@@H]3O[C@@H]5CO[C@@H](c6cccs6)O[C@H]5[C@H](O)[C@H]3O)[C@H]3COC(=O)[C@H]23)OCO4)cc(OC)c1O" )
Result: 346

1. COc1cc([C@@H]2c3cc4c(cc3[C@@H](O[C@@H]3O[C@@H]5CO[C@@H](C)O[C@H]5[C@H](O)[C@H]3O)[C@H]3COC(=O)[C@H]23)OCO4)cc(OC)c1O
2. C=CCc1c(OC)cc([C@@H]2c3cc4c(cc3[C@@H](O[C@@H]3O[C@@H]5CO[C@@H](c6cccs6)O[C@H]5[C@H](O)[C@H]3O)[C@H]3COC(=O)[C@H]23)OCO4)cc1OC
3. C=CCc1c(OC)cc([C@@H]2c3cc4c(cc3[C@@H](O[C@@H]3O[C@@H]5CO[C@@H](C)O[C@H]5[C@H](O)[C@H]3O)[C@H]3COC(=O)[C@H]23)OCO4)cc1OC
4. COc1cc([C@@H]2c3cc4c(cc3[C@@H](O[C@@H]3O[C@@H]5CO[C@@H](C)O[C@H]5[C@H](O)[C@H]3O)[C@H]3COC(=O)[C@H]23)OCO4)cc(OC)c1C
Request: Write the entries in order, lowest recorded DSB first. Reply: labels, ordered per the request.
Result: 3, 4, 2, 1
(3: 17, 4: 26, 2: 42, 1: 305)

Source of measurements: ChEMBL document CHEMBL1126345
